molecular target: MAP3K10 (human); assay: ELISA; conditions: compound 0.2 µM

- smiles_str: "CNC(=O)c1cc(Oc2ccc(NC(=O)Nc3ccc(Cl)c(C(F)(F)F)c3)cc2)ccn1"
  unit_annotation: "%"
  inhibition: -2.3
- smiles_str: "CCN(CC)CCNC(=O)c1c(C)[nH]c(/C=C2\\C(=O)Nc3ccc(F)cc32)c1C"
  unit_annotation: "%"
  inhibition: 1.2
- smiles_str: "Cc1ccc(Nc2nccc(N(C)c3ccc4c(C)n(C)nc4c3)n2)cc1S(N)(=O)=O"
  unit_annotation: "%"
  inhibition: 17.3
- smiles_str: "COc1cc2c(Oc3ccc4[nH]c(C)cc4c3F)ncnc2cc1OCCCN1CCCC1"
  unit_annotation: "%"
  inhibition: 6

Data provenance is the kinase profiling compilation of Christmann-Franck et al. (2016).
